ASSAYED SYSTEM: human GlyT1c transporter (Homo sapiens)
Construct: expressed in transfected cells; host or cells: CHO cells (recombinant; line hGlyT1c_5_CHO is named for the uptake assay)
ASSAY DETAILS: Radioligand binding assay using recombinant CHO cell membranes expressing human GlyT1
TEST CONDITIONS: radioligand binding to human GlyT1c transporter-expressing membranes
From the text: 2. Radioligand binding assays using recombinant CHO cell membranes expressing human GlyT1: […]
QUANTITY MEASURED: Ki

Consider the following illustrative entries.
Cc1nn(C)c(Cl)c1S(=O)(=O)N1CC(Nc2ccc(F)c(F)c2)C(c2ccccc2)C1 (stereo not shown) = ≤ 10 µM
CCCOC(=O)N[C@H]1CN(S(=O)(=O)c2cn(C)cn2)C[C@@H]1c1ccccc1 = ≤ 10 µM
CCCC1CC1CN[C@H]1CN(S(=O)(=O)c2cn(C)cn2)C[C@@H]1c1ccccc1 (stereo partly shown) [Example 649] = ≤ 0.1 µM
Cn1cnc(S(=O)(=O)N2C[C@H](Nc3cnc(C4CC4)cn3)[C@@H](c3ccccc3)C2)c1 = ≤ 10 µM
Cn1cnc(S(=O)(=O)N2C[C@@H](COc3ccc(C(F)(F)F)cc3Cl)[C@H](c3ccc(F)cc3)C2)c1 (relative stereo) = ≤ 0.01 µM

In: Can you look up the measured Ki of COc1ccc(N[C@@H]2CN(S(=O)(=O)c3cn(C)cn3)C[C@H]2c2ccccc2)cc1 (relative stereo) for me?
Out: ≤ 10 µM

In: // repeat for `Cn1cnc(S(=O)(=O)N2C[C@H](NCCCc3cccc(Cl)c3)[C@@H](c3ccccc3)C2)c1` and report
Out: ≤ 0.1 µM

In: Cool, now Cn1cnc(S(=O)(=O)N2C[C@@H](C(=O)NCc3cc(C(F)(F)F)ccn3)[C@H](c3ccc(F)cc3)C2)c1 (relative stereo)
Out: ≤ 1 µM

----------
Form field: pKi (one value per entry).
ASSAYED SYSTEM: human GlyT1c transporter (Homo sapiens)
Construct: expressed in transfected cells; host or cells: CHO cells (recombinant; line hGlyT1c_5_CHO is named for the uptake assay)
Sequence (P48067 1-706): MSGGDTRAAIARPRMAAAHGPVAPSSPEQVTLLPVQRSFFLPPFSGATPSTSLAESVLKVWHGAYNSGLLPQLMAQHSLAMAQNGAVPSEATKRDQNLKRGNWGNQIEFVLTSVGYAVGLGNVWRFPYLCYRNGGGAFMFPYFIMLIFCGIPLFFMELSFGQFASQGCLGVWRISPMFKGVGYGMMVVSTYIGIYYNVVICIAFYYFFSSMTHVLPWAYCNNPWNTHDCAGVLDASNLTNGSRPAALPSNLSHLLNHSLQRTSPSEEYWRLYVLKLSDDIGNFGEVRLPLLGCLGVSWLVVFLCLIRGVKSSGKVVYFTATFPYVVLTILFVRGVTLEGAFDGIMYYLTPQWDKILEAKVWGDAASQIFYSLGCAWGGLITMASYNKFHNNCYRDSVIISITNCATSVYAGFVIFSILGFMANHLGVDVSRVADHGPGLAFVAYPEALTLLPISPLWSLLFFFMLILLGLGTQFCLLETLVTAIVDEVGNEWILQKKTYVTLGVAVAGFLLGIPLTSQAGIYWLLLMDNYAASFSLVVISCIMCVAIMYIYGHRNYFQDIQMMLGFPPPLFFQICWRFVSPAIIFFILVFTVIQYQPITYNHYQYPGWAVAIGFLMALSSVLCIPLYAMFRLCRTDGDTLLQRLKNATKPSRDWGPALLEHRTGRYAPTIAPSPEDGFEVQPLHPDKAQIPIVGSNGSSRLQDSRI
ASSAY DETAILS: Radioligand binding assay using recombinant CHO cell membranes expressing human GlyT1
TEST CONDITIONS: radioligand binding, recombinant CHO cell membranes expressing human GlyT1c
pKi: −log10 of the molar value.

In: Request the reported pKi associated with Cn1cnc(S(=O)(=O)N2C[C@@H](Nc3cc(C(F)(F)F)c(Cl)cn3)[C@H](C3CCCCO3)C2)c1 (relative stereo) [Example 848]
Out: ≥ 6.00

In: Can you check Cc1cc(N[C@@H]2CN(S(=O)(=O)c3cn(C)cn3)C[C@H]2C2CCCCO2)ccc1F (relative stereo) [Example 847] next?
Out: ≥ 7.00

In: Repeat with CCCCCCNC1CN(S(=O)(=O)c2cn(C)cn2)CC1[C@@H]1CCCO1 (stereo partly drawn) [Example 821]
Out: ≥ 5.00

Each recorded value in this set is attributed to patent EP2970215B1.
